src = paper PMC3042124

Molecular target: β1 subunit of the constitutive proteasome (Homo sapiens, UniProt P28072+Q99436)
reportedEndpoint: pIC50
Scale explanation: pIC50 corresponds to minus log10 of a concentration expressed in moles per litre.

Some compounds with recorded pIC50:
• COc1ccc(C[C@H](NC(=O)Cc2ccc3ccccc3c2)C(=O)N[C@@H](Cc2ccccc2)C(=O)N[C@H](/C=C/S(=O)(=O)c2ccc(O)cc2)CC(C)C)cc1 = 4.49
• CCCC[C@H](NC(=O)[C@@H]1CCCN1C(=O)[C@H](C)NC(C)=O)C(=O)N[C@H](/C=C/S(C)(=O)=O)CC(C)C = 5.11

In the following, a different compound is considered.
# input compound: `CCCC[C@H](NC(=O)[C@@H]1CCCN1C(=O)[C@H](C)NC(C)=O)C(=O)N[C@H](/C=C/S(=O)(=O)c1ccc(O)cc1)CC(C)C` ; wanted: its pIC50
5.40
